Molecular target: T1, human α-CGRP 1-37 (WT) (human, C-terminal amide; N-terminal biotin when captured on the SA chip; 125I-labelled in the radioligand assay)
T1 construct: also called α-human
T1 peptide: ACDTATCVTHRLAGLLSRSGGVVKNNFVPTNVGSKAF
Test: Biacore, 37°C, Fab over CGRP on SA chip
readoutLabel: koff (s⁻¹)

| binder | readoutNumber |
| --- | --- |
| G1 variant M65 Fab (Fab, V domains shown, Fab; constant domains as m1) VH: EVQLVESGGGLVQPGGSLRLSCAASGFTFSNYWISWVRQAPGKGLEWVAEIRSKSDCSATHYAEAVKGRFTISRDNAKNSLYLQMNSLRAEDTAVYYCTVYFDYGLAIQNYWGQGTLVTVSS VL: EIVLTQSPATLSLSPGERATLSCKASKNVGTYVSWYQQKPGQAPRLLIYAASNRYIGIPARFSGSGSGTDFTLTISSLEPEDFAVYYCSQSYNYPYTFGQGTKLEIK | 0.000803 |
| G1 variant M60 Fab (Fab, V domains shown, Fab; constant domains as m1) VH: EVQLVESGGGLVQPGGSLRLSCAASGFTFSNYWISWVRQAPGKGLEWVAEIRSKSDNRATFYAEAVKGRFTISRDNAKNSLYLQMNSLRAEDTAVYYCTVYFDYGLAIQNYWGQGTLVTVSS VL: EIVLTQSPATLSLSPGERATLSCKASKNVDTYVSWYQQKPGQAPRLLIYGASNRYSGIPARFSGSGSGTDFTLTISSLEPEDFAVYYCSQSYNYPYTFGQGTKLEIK | 0.000911 |
| G1 variant M70 Fab (Fab, V domains shown, Fab; constant domains as m1; printed L561 read as L56I) VH: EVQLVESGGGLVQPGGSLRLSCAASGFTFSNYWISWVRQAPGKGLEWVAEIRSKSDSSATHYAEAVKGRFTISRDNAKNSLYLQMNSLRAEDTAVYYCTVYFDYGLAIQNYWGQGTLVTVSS VL: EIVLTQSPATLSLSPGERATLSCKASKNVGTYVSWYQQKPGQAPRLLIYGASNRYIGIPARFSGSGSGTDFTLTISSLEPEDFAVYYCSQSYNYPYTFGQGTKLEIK | 0.000559 |
| G1 variant M48 Fab (Fab, V domains shown, Fab; constant domains as m1) VH: EVQLVESGGGLVQPGGSLRLSCAASGFTFSNYWISWVRQAPGKGLEWVAEIRSKSDNLATHYAEAVKGRFTISRDNAKNSLYLQMNSLRAEDTAVYYCTVYFDYGLAIQNYWGQGTLVTVSS VL: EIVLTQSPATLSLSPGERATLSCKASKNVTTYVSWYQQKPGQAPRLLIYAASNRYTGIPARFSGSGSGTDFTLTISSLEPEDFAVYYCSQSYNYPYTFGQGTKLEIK | 0.000842 |
| G1 variant M50 Fab (Fab, V domains shown, Fab; constant domains as m1) VH: EVQLVESGGGLVQPGGSLRLSCAASGFTFSNYWISWVRQAPGKGLEWVAEIRSKSDRSATHYAEAVKGRFTISRDNAKNSLYLQMNSLRAEDTAVYYCTVYFDYGLAIQNYWGQGTLVTVSS VL: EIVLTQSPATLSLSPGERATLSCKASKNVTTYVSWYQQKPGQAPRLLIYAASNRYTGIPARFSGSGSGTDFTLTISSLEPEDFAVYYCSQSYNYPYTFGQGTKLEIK | 0.000406 |
| G1 variant M25 Fab (Fab, V domains shown, Fab; constant domains as m1) VH: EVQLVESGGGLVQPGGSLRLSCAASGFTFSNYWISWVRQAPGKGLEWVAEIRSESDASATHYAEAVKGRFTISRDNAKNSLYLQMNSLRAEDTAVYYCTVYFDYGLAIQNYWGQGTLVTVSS VL: EIVLTQSPATLSLSPGERATLSCKASKNVTTYVSWYQQKPGQAPRLLIYGASNRYLGIPARFSGSGSGTDFTLTISSLEPEDFAVYYCSQSYNYPYTFGQGTKLEIK | 0.00014 |
| G1 variant M49 Fab (Fab, V domains shown, Fab; constant domains as m1) VH: EVQLVESGGGLVQPGGSLRLSCAASGFTFSNYWISWVRQAPGKGLEWVAEIRSKSDNYATFYAEAVKGRFTISRDNAKNSLYLQMNSLRAEDTAVYYCTVYFDYGLAIQNYWGQGTLVTVSS VL: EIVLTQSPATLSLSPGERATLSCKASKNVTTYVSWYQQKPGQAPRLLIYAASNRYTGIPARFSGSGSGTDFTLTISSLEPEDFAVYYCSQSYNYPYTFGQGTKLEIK | 0.000595 |
| G1 variant M34 Fab (Fab, V domains shown, Fab; constant domains as m1) VH: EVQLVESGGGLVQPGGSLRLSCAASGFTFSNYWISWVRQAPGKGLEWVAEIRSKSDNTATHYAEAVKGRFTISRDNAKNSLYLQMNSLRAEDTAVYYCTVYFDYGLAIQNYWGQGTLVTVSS VL: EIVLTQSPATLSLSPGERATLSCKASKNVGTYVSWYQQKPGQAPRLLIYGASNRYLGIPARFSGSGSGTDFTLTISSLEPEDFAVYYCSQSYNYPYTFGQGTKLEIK | 0.000646 |
| G1 variant M10 Fab (Fab, V domains shown, Fab; constant domains as m1) VH: EVQLVESGGGLVQPGGSLRLSCAASGFTFSNYWISWVRQAPGKGLEWVAEIRSESDASATHYAEAVKGRFTISRDNAKNSLYLQMNSLRAEDTAVYYCSSYFDYGLAIQNYWGQGTLVTVSS VL: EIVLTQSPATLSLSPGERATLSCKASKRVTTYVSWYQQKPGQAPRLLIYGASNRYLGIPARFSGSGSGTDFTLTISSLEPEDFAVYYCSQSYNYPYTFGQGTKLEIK | 0.000173 |
| G1 variant M83 Fab (Fab, V domains shown, Fab; constant domains as m1) VH: EVQLVESGGGLVQPGGSLRLSCAASGFTFSNYWISWVRQAPGKGLEWVAEIRSKSDNMATFYAEAVKGRFTISRDNAKNSLYLQMNSLRAEDTAVYYCTVYFDYGLAIQNYWGQGTLVTVSS VL: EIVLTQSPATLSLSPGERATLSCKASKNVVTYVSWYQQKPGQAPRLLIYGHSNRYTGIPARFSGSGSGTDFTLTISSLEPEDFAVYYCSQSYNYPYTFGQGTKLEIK | 0.000933 |

Provenance of the data: patent US20190071490A1
